system under test: sIR-Fc (human, UniProt P06213)
protocol description: competition, TR-FRET vs b-RP9
readout type: pIC50
# pIC50 = -log10(concentration in molar units)

Task item: Which pIC50 value is on record for S414 (not fully specified; listing feature) chain 1: ESFYDWFERQLGKX chain 2: ESFYDWFERQLGKX ?
Reply: 6.74
